Data origin, for the record: paper PMC7692923

Assay: Gastric stability of anthocyanins in extracts, standardized in vitro digestion (simulated gastric fluid, pepsin, pH 3.0)
Type: in vitro ADME
Details: single digestion, liquid extract, % of undigested
The entries below come with measured Gastric stability values attached.

[
  {
    "compound": "COc1cc(/C=C/C(=O)OC[C@H]2O[C@@H](OC[C@H]3O[C@@H](Oc4cc5c(O)cc(O)cc5[o+]c4-c4ccc(O)c(O)c4)[C@H](O[C@@H]4OC[C@@H](O)[C@H](O)[C@H]4O)[C@@H](O)[C@H]3O)[C@H](O)[C@@H](O)[C@@H]2O)ccc1O",
    "Gastric stability": "86%"
  },
  {
    "compound": "O=C(/C=C/c1ccc(O)cc1)OC[C@H]1O[C@@H](OC[C@H]2O[C@@H](Oc3cc4c(O)cc(O)cc4[o+]c3-c3ccc(O)c(O)c3)[C@H](O[C@@H]3OC[C@@H](O)[C@H](O)[C@H]3O)[C@@H](O)[C@H]2O)[C@H](O)[C@@H](O)[C@@H]1O",
    "Gastric stability": "65%"
  },
  {
    "compound": "O=C(O)CC(=O)OC[C@H]1O[C@@H](Oc2cc3c(O)cc(O)cc3[o+]c2-c2ccc(O)cc2)[C@H](O)[C@@H](O)[C@@H]1O [Pelargonidin-3-malonyl-glucoside]",
    "Gastric stability": "87%"
  },
  {
    "compound": "OC[C@H]1O[C@@H](Oc2cc3c(O)cc(O)cc3[o+]c2-c2ccc(O)cc2)[C@H](O)[C@@H](O)[C@@H]1O [Pelargonidin-3-glucoside]",
    "Gastric stability": "90%"
  }
]

----------
Assay: Gastric stability of anthocyanins in extracts, standardized in vitro digestion (simulated gastric fluid, pepsin, pH 3.0)
Type: in vitro ADME
Conditions: co-digestion of black carrot and strawberry extracts, mean ± SD n = 3
Listed here are compounds together with their documented Post-Gastric concentration.

[
  {
    "compound": "OC[C@H]1O[C@@H](OC[C@H]2O[C@@H](Oc3cc4c(O)cc(O)cc4[o+]c3-c3ccc(O)c(O)c3)[C@H](O[C@@H]3OC[C@@H](O)[C@H](O)[C@H]3O)[C@@H](O)[C@H]2O)[C@H](O)[C@@H](O)[C@@H]1O [Cyanidin-3-xylosyl-glucosyl-galactoside]",
    "Post-Gastric concentration": "0.24 ± 0.02 mg/100 mL of extract"
  },
  {
    "compound": "COc1cc(/C=C/C(=O)OC[C@H]2O[C@@H](OC[C@H]3O[C@@H](Oc4cc5c(O)cc(O)cc5[o+]c4-c4ccc(O)c(O)c4)[C@H](O[C@@H]4OC[C@@H](O)[C@H](O)[C@H]4O)[C@@H](O)[C@H]3O)[C@H](O)[C@@H](O)[C@@H]2O)ccc1O",
    "Post-Gastric concentration": "8.28 ± 0.03 mg/100 mL of extract"
  },
  {
    "compound": "O=C(/C=C/c1ccc(O)cc1)OC[C@H]1O[C@@H](OC[C@H]2O[C@@H](Oc3cc4c(O)cc(O)cc4[o+]c3-c3ccc(O)c(O)c3)[C@H](O[C@@H]3OC[C@@H](O)[C@H](O)[C@H]3O)[C@@H](O)[C@H]2O)[C@H](O)[C@@H](O)[C@@H]1O",
    "Post-Gastric concentration": "1.16 ± 0.02 mg/100 mL of extract"
  },
  {
    "compound": "OC[C@H]1O[C@@H](Oc2cc3c(O)cc(O)cc3[o+]c2-c2ccc(O)cc2)[C@H](O)[C@@H](O)[C@@H]1O [Pelargonidin-3-glucoside]",
    "Post-Gastric concentration": "12.63 ± 0.46 mg/100 mL of extract"
  },
  {
    "compound": "O=C(O)CC(=O)OC[C@H]1O[C@@H](Oc2cc3c(O)cc(O)cc3[o+]c2-c2ccc(O)cc2)[C@H](O)[C@@H](O)[C@@H]1O [Pelargonidin-3-malonyl-glucoside]",
    "Post-Gastric concentration": "3.57 ± 0.07 mg/100 mL of extract"
  },
  {
    "compound": "OC[C@H]1O[C@@H](Oc2cc3c(O)cc(O)cc3[o+]c2-c2ccc(O)c(O)c2)[C@H](O[C@@H]2OC[C@@H](O)[C@H](O)[C@H]2O)[C@@H](O)[C@H]1O [Cyanidin-3-xylosyl-galactoside]",
    "Post-Gastric concentration": "0.98 ± 0.02 mg/100 mL of extract"
  }
]

----------
Each record here notes measured Bioaccessibility.
Test: In vitro bioaccessibility after digestion of matrix-containing powder
Format: in vitro ADME
Conditions: co-digestion of black carrot and strawberry powder

[
  {
    "molecule": "O=C(/C=C/c1ccc(O)cc1)OC[C@H]1O[C@@H](OC[C@H]2O[C@@H](Oc3cc4c(O)cc(O)cc4[o+]c3-c3ccc(O)c(O)c3)[C@H](O[C@@H]3OC[C@@H](O)[C@H](O)[C@H]3O)[C@@H](O)[C@H]2O)[C@H](O)[C@@H](O)[C@@H]1O",
    "Bioaccessibility": "52%"
  },
  {
    "molecule": "O=C(O)CC(=O)OC[C@H]1O[C@@H](Oc2cc3c(O)cc(O)cc3[o+]c2-c2ccc(O)cc2)[C@H](O)[C@@H](O)[C@@H]1O [Pelargonidin-3-malonyl-glucoside]",
    "Bioaccessibility": "36%"
  },
  {
    "molecule": "OC[C@H]1O[C@@H](Oc2cc3c(O)cc(O)cc3[o+]c2-c2ccc(O)c(O)c2)[C@H](O[C@@H]2OC[C@@H](O)[C@H](O)[C@H]2O)[C@@H](O)[C@H]1O [Cyanidin-3-xylosyl-galactoside]",
    "Bioaccessibility": "84%"
  },
  {
    "molecule": "OC[C@H]1O[C@@H](Oc2cc3c(O)cc(O)cc3[o+]c2-c2ccc(O)cc2)[C@H](O)[C@@H](O)[C@@H]1O [Pelargonidin-3-glucoside]",
    "Bioaccessibility": "28%"
  },
  {
    "molecule": "COc1cc(/C=C/C(=O)OC[C@H]2O[C@@H](OC[C@H]3O[C@@H](Oc4cc5c(O)cc(O)cc5[o+]c4-c4ccc(O)c(O)c4)[C@H](O[C@@H]4OC[C@@H](O)[C@H](O)[C@H]4O)[C@@H](O)[C@H]3O)[C@H](O)[C@@H](O)[C@@H]2O)ccc1O",
    "Bioaccessibility": "48%"
  },
  {
    "molecule": "OC[C@H]1O[C@@H](OC[C@H]2O[C@@H](Oc3cc4c(O)cc(O)cc4[o+]c3-c3ccc(O)c(O)c3)[C@H](O[C@@H]3OC[C@@H](O)[C@H](O)[C@H]3O)[C@@H](O)[C@H]2O)[C@H](O)[C@@H](O)[C@@H]1O [Cyanidin-3-xylosyl-glucosyl-galactoside]",
    "Bioaccessibility": "105%"
  }
]

----------
Assay: Gastric stability of anthocyanins in extracts, standardized in vitro digestion (simulated gastric fluid, pepsin, pH 3.0)
Type: in vitro ADME
Settings: single digestion, liquid extract, 2 h 37 °C pH 3.0, mean ± SD n = 3
Post-Gastric concentration values by entry

[
  {
    "compound": "OC[C@H]1O[C@@H](Oc2cc3c(O)cc(O)cc3[o+]c2-c2ccc(O)cc2)[C@H](O)[C@@H](O)[C@@H]1O [Pelargonidin-3-glucoside]",
    "Post-Gastric concentration": "11.13 ± 0.09 mg/100 mL of extract"
  },
  {
    "compound": "O=C(/C=C/c1ccc(O)cc1)OC[C@H]1O[C@@H](OC[C@H]2O[C@@H](Oc3cc4c(O)cc(O)cc4[o+]c3-c3ccc(O)c(O)c3)[C@H](O[C@@H]3OC[C@@H](O)[C@H](O)[C@H]3O)[C@@H](O)[C@H]2O)[C@H](O)[C@@H](O)[C@@H]1O",
    "Post-Gastric concentration": "1.14 ± 0.01 mg/100 mL of extract"
  },
  {
    "compound": "OC[C@H]1O[C@@H](OC[C@H]2O[C@@H](Oc3cc4c(O)cc(O)cc4[o+]c3-c3ccc(O)c(O)c3)[C@H](O[C@@H]3OC[C@@H](O)[C@H](O)[C@H]3O)[C@@H](O)[C@H]2O)[C@H](O)[C@@H](O)[C@@H]1O [Cyanidin-3-xylosyl-glucosyl-galactoside]",
    "Post-Gastric concentration": "0.25 ± 0.01 mg/100 mL of extract"
  },
  {
    "compound": "O=C(O)CC(=O)OC[C@H]1O[C@@H](Oc2cc3c(O)cc(O)cc3[o+]c2-c2ccc(O)cc2)[C@H](O)[C@@H](O)[C@@H]1O [Pelargonidin-3-malonyl-glucoside]",
    "Post-Gastric concentration": "3.37 ± 0.01 mg/100 mL of extract"
  },
  {
    "compound": "OC[C@H]1O[C@@H](Oc2cc3c(O)cc(O)cc3[o+]c2-c2ccc(O)c(O)c2)[C@H](O[C@@H]2OC[C@@H](O)[C@H](O)[C@H]2O)[C@@H](O)[C@H]1O [Cyanidin-3-xylosyl-galactoside]",
    "Post-Gastric concentration": "0.95 ± 0.00 mg/100 mL of extract"
  },
  {
    "compound": "COc1cc(/C=C/C(=O)OC[C@H]2O[C@@H](OC[C@H]3O[C@@H](Oc4cc5c(O)cc(O)cc5[o+]c4-c4ccc(O)c(O)c4)[C@H](O[C@@H]4OC[C@@H](O)[C@H](O)[C@H]4O)[C@@H](O)[C@H]3O)[C@H](O)[C@@H](O)[C@@H]2O)ccc1O",
    "Post-Gastric concentration": "8.23 ± 0.04 mg/100 mL of extract"
  }
]
